Where do these numbers come from? They come from PubChem BioAssay (NCI).

Tested on: M14 melanoma
Test: NCI tumour cell line growth inhibition, 48 h; in the data active = GI50 below about 0.43 µM; inactive = the rest
Outcome codes: yes (active), no (inactive)

compound=CCOC(=O)c1cc(C(=O)c2cc(OC)c(OC)c(OC)c2)n2ncccc12 qualitative_label=yes
compound="CCSCC1CC(O)(c2ccccc2)CC(c2ccc(F)cc2)O1 (stereo not drawn)" qualitative_label=no
compound=CCN(Cc1ccc(C)cc1)c1ccc(CO)c(Cl)c1 qualitative_label=no

* * *

System: SF-295 CNS
Assay: NCI tumour cell line growth inhibition, 48 h
recorded endpoint: GI50

compound=CCN1C/C(=C\c2cc(OC)c(OC)cc2OC)C(=O)/C(=C/c2cc(OC)c(OC)cc2OC)C1 endpoint_result="2.3 µM"
compound=CCN(Cc1ccc(C)cc1)c1ccc(CO)c(Cl)c1 endpoint_result="1.01 µM"
compound=Cc1nc2ccc(Nc3nc(Cl)nc(N4CCOCC4)n3)cc2n1Cc1ccccc1 endpoint_result="11.9 µM"
compound=COc1cc(Nc2nc3cc(N)cc(N)c3nc2-c2ccccc2)cc(OC)c1OC endpoint_result="16 µM"
compound=Cc1cc2nc3c4cc(O)ccc4n(CCN(C)C)c3nc2cc1C endpoint_result="0.573 µM"
compound=OCCN1CCN(CCCN2c3ccccc3Sc3ccc(Cl)cc32)CC1 endpoint_result="1.75 µM"
compound=O=Nc1ccc(O)c(=O)cc1 endpoint_result="26.1 µM"
compound=Fc1cc2[nH]ncc2c2c3c(c(-c4cn[nH]c4C(F)(F)F)nc12)CCCC3 endpoint_result="2.15 µM"
compound=Cc1cc(S(=O)(=O)Nc2nc3ccccc3o2)c(SCc2ccccc2)cc1Cl endpoint_result="19.2 µM"
compound=CCOC(=O)/C(=C/N1CCN(C(=O)c2ccco2)C1=S)C(=O)c1ccccc1 endpoint_result="16.4 µM"
compound=CC(C)(C)c1ccc(S(=O)(=O)Oc2ccc3c4c(c(=O)oc3c2)CCCCC4)cc1 endpoint_result="20.9 µM"
compound=CCOC(=O)c1cc(C(=O)c2cc(OC)c(OC)c(OC)c2)n2ncccc12 endpoint_result="0.219 µM"
compound=Cc1cccc(N(C)C(=O)[C@@H]2[C@H](O)CCN2c2nc(C)cc(C(F)(F)F)c2C#N)c1 endpoint_result="20.3 µM"
compound=NS(=O)(=O)c1ccc(Nc2cc(-c3cccc(O)c3)[nH]n2)cc1 endpoint_result="> 25 µM"
compound="CCC(C)[C@H]1O[C@]2(CC[C@@H]1C)C[C@@H]1C[C@@H](C/C=C(\\C)[C@@H](OC3C[C@H](OC)C(O[C@H]4C[C@H](OC)[C@@H](O)[C@H](C)O4)[C@H](C)O3)[C@@H](C)/C=C/C=C3\\CO[C@@H]4[C@H](O)C(C)=C[C@@H](C(=O)O1)[C@]34O)O2 (stereo not given in full)" endpoint_result="2.54 µM"

* * *

System: CAKI-1 renal
Assay: NCI tumour cell line growth inhibition, 48 h
recorded endpoint: TGI

compound=O=c1oc2ccccc2nc1/C=C(\O)c1ccc(Cl)cc1 target_entity="CAKI-1 renal" recorded_endpoint=TGI endpoint_result="> 100 µM"
compound=O=c1[nH]c(=O)n(COCc2ccccc2)c2ccsc12 target_entity="CAKI-1 renal" recorded_endpoint=TGI endpoint_result="> 100 µM"
compound=CC(C)(C)c1ccc(S(=O)(=O)Oc2ccc3c4c(c(=O)oc3c2)CCCCC4)cc1 target_entity="CAKI-1 renal" recorded_endpoint=TGI endpoint_result="43.5 µM"
compound="Cc1cc2c(c(C=Nc3ccccc3O)c1)OC1(C=C2)Oc2ccccc2C(=O)N1C (configuration not stated)" target_entity="CAKI-1 renal" recorded_endpoint=TGI endpoint_result="42.2 µM"
compound=CC1(C)O[C@@H]([C@H](O)CO)[C@H](O)[C@@H](C2SCCCS2)O1 target_entity="CAKI-1 renal" recorded_endpoint=TGI endpoint_result="> 100 µM"
compound="CC(N)C(Cc1ccc(Cl)cc1)c1ccc(Cl)cc1 (configuration not stated)" target_entity="CAKI-1 renal" recorded_endpoint=TGI endpoint_result="24.1 µM"
compound=CN(C)c1ccc(C=Nc2ccc(-c3nc4ccccc4[nH]3)cc2)cc1 target_entity="CAKI-1 renal" recorded_endpoint=TGI endpoint_result="> 100 µM"
compound="N=C1OC(CN2CCN(c3ccccc3)CC2)CN1C(=S)Nc1ccccc1 (configuration not stated)" target_entity="CAKI-1 renal" recorded_endpoint=TGI endpoint_result="> 100 µM"
compound=C[C@@H](c1ccccc1)n1c(N)c(-c2ccccn2)c2ccc([N+](=O)[O-])cc2c1=O target_entity="CAKI-1 renal" recorded_endpoint=TGI endpoint_result="> 100 µM"
compound=N#Cc1cccc2c1Nc1ccccc1S2 target_entity="CAKI-1 renal" recorded_endpoint=TGI endpoint_result="> 100 µM"
compound="COc1cc(OC)c2c(c1)OC(c1ccccc1)CC2=O (configuration not stated)" target_entity="CAKI-1 renal" recorded_endpoint=TGI endpoint_result="> 10 µM"
compound=CCN(CC)c1ccc(/C=N/NC(=O)CSc2nc3ccccc3c(=O)n2CCc2ccc(S(N)(=O)=O)cc2)c(O)c1 target_entity="CAKI-1 renal" recorded_endpoint=TGI endpoint_result="> 100 µM"
compound=C=CCn1c(-c2ccc([N+](=O)[O-])cc2)cs/c1=N\C(P(=O)(O)O)P(=O)(O)O target_entity="CAKI-1 renal" recorded_endpoint=TGI endpoint_result="> 100 µM"
compound=COc1ccc(C2=N[C@@H](Cc3ccccc3)C(=O)Nc3ccsc32)cc1 target_entity="CAKI-1 renal" recorded_endpoint=TGI endpoint_result="33.8 µM"
compound="COc1ccc(N=NC(=O)NC(Cc2ccccc2)C(=O)O)cc1 (configuration not stated)" target_entity="CAKI-1 renal" recorded_endpoint=TGI endpoint_result="> 100 µM"
compound="CCOC(=O)C1Cc2c(cc3c4c(cccc24)N(C(C)=O)C3)N(C)C1 (configuration not stated)" target_entity="CAKI-1 renal" recorded_endpoint=TGI endpoint_result="> 100 µM"
compound=CC(C)(Br)C(=O)N1CCN(C(c2ccccc2)c2ccccc2)CC1 target_entity="CAKI-1 renal" recorded_endpoint=TGI endpoint_result="> 100 µM"
compound=c1ccc2sc(SCCSc3nc4ccccc4s3)nc2c1 target_entity="CAKI-1 renal" recorded_endpoint=TGI endpoint_result="> 100 µM"
compound="COc1ccc(C(c2cc(OC)c(OC)c(OC)c2)n2ccnc2)cc1O (configuration not stated)" target_entity="CAKI-1 renal" recorded_endpoint=TGI endpoint_result="> 100 µM"
compound=CC(=O)Nc1ccc(NCC(=O)Nn2cnc3ccc(S(=O)(=O)Nc4ccc(NC(C)=O)cc4)cc3c2=O)cc1 target_entity="CAKI-1 renal" recorded_endpoint=TGI endpoint_result="> 100 µM"
compound="OC(c1ccc(F)cc1)C(F)(F)c1nc2ccccc2o1 (configuration not stated)" target_entity="CAKI-1 renal" recorded_endpoint=TGI endpoint_result="> 100 µM"
compound=c1ccc2c(Cc3[nH]c4ccccc4c3Cc3c[nH]c4ccccc34)c[nH]c2c1 target_entity="CAKI-1 renal" recorded_endpoint=TGI endpoint_result="10.3 µM"
